Origin of measurements: patent US12535483B2

Test system: GII.17 VLP
Assay: KD value by bio-layer interferometry (BLI, BLItz), peptide on SA chip, GII.17 VLP
Type: binding, norovirus GII.17 Saitama strain
Conditions: GII.17 VLP; association 90 sec
measurement_name: ka (M⁻¹ s⁻¹)

>>> quantitative_readout("YVIRNSDRHN [No. 43]")
822
>>> quantitative_readout("KYRATICHTV [No. 52]")
"1.29e+06"
>>> quantitative_readout("VCVDNDISMS [No. 150]")
102
>>> quantitative_readout("ICSSWFPSVH [No. 48]")
"1.28e+06"
>>> quantitative_readout("YRRSKSEIFV [No. 59]")
134000
>>> quantitative_readout("SVMVTRSLFG [No. 163]")
110000
>>> quantitative_readout("ECMGRRWMSS [No. 154]")
49500
>>> quantitative_readout("VVGFGRRSLF [No. 156]")
398
